These data points were gathered from ChEMBL document CHEMBL1140334.

Target: Vascular endothelial growth factor receptor 2 (Homo sapiens, UniProt P35968)
Sequence (P35968 whole entry): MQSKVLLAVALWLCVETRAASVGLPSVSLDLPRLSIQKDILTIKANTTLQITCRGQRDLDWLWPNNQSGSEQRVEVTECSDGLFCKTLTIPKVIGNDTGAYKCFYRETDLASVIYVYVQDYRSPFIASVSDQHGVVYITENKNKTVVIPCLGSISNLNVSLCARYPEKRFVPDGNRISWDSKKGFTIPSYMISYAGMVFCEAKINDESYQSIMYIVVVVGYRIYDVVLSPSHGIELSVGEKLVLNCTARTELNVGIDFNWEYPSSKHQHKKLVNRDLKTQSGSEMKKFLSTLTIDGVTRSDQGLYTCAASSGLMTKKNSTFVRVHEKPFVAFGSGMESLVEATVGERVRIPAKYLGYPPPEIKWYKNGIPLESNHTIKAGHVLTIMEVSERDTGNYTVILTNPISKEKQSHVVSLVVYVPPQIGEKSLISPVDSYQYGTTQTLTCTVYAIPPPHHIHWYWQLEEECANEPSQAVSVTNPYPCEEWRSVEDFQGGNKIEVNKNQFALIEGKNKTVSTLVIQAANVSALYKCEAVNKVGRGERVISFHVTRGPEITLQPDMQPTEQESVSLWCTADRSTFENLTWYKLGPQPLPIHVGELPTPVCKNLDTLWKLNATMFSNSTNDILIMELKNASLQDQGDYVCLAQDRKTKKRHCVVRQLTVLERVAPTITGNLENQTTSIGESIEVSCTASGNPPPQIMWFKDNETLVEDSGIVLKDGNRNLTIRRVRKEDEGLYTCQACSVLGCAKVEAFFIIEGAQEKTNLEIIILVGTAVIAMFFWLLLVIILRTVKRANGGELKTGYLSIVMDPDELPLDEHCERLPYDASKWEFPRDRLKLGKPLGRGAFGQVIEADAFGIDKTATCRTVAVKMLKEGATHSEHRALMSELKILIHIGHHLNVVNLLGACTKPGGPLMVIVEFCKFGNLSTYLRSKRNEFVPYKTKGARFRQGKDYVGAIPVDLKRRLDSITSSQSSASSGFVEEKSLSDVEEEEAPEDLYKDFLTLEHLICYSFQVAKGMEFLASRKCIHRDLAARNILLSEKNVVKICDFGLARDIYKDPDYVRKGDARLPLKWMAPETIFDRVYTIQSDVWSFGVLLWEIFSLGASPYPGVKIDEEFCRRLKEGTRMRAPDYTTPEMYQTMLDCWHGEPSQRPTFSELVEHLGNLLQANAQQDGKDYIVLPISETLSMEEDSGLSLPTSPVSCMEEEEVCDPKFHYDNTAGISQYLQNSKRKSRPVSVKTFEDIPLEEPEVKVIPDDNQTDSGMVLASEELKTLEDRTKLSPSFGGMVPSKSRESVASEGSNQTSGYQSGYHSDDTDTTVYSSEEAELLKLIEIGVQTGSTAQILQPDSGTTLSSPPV
Assay: Inhibition of vascular endothelial growth factor receptor 2
Each record here notes measured IC50.
The reply should be a number in nM, with the unit left off.

>>> print(df.to_string())
                                smiles_repr  uom  measured_result
0  Clc1cccc(Nc2cncc(-c3cncc(NCCCN4CCNCC4)c3)n2)c1   nM              236
1  CN(C)CCNC(=O)c1cncc(-c2cncc(Nc3cccc(Cl)c3)n2)c1   nM             4300
2     OCCCNc1cncc(-c2cncc(Nc3ccccc3Cl)n2)c1   nM             1010

Now for another entry.
Q: Consider the compound COCCC(=O)Nc1cncc(-c2cncc(Nc3cccc(Cl)c3)n2)c1 and give its recorded IC50.
A: 593
